# System: Corn
# Method description: Control experiment, test in post-emergence stage, crop safety
# Assay type: in vivo
# Set-up: key: Level 10: completely dead; Level 9: above 90% growth inhibition rate; Level 8: above 80% growth inhibition rate; Level 7: above 70% growth inhibition rate; Level 6: above 60% growth inhibition rate; Level 5: above 50% growth inhibition rate; Level 4: above 30% growth inhibition rate; Level 3: above 20% growth inhibition rate; Level 2: above 10% growth inhibition rate; Level 1: above 1-10% growth inhibition rate; Level 0: no effect
# Condition set: 5-6 leaf stage, 15 g/ha, observe time 25 day
Measured Corn (safety, activity level), listed per entry for reference.
Endpoint: Corn (safety, activity level)

INSERT INTO results (compound, assay_value) VALUES
  ('Cc1nn(C)c(O)c1C(=O)c1ccc(S(C)(=O)=O)c(COCC(F)(F)F)c1Cl [B, reference compound]', 0),
  ('Cc1nn(C)cc1C(=O)Oc1c(C(=O)c2ccc(S(C)(=O)=O)c(COCC(F)(F)F)c2Cl)c(C)nn1C', 0),
  ('COCc1c(S(C)(=O)=O)ccc(C(=O)c2c(C)nn(C)c2OC(=O)c2cn(C)nc2C)c1Cl', 0);
